The origin of these recorded values is patent US20240327430A1.

This listing pairs molecules with measured pIC50.
biological target: truncated Polθ protein (Polθ-Hel containing the helicase domain (67-894)) (Homo sapiens (Human)); assay: Polθ ATPase assay (Biological Assay 1, ADP-Glo luminescence); format: biochemical; conditions: Polθ-Hel 0.5 nM, DNA substrate 500 nM, ATP 60 μM, 23° C.; read-out: Pole ATPase assay IC50
Sequence (O75417 67-894): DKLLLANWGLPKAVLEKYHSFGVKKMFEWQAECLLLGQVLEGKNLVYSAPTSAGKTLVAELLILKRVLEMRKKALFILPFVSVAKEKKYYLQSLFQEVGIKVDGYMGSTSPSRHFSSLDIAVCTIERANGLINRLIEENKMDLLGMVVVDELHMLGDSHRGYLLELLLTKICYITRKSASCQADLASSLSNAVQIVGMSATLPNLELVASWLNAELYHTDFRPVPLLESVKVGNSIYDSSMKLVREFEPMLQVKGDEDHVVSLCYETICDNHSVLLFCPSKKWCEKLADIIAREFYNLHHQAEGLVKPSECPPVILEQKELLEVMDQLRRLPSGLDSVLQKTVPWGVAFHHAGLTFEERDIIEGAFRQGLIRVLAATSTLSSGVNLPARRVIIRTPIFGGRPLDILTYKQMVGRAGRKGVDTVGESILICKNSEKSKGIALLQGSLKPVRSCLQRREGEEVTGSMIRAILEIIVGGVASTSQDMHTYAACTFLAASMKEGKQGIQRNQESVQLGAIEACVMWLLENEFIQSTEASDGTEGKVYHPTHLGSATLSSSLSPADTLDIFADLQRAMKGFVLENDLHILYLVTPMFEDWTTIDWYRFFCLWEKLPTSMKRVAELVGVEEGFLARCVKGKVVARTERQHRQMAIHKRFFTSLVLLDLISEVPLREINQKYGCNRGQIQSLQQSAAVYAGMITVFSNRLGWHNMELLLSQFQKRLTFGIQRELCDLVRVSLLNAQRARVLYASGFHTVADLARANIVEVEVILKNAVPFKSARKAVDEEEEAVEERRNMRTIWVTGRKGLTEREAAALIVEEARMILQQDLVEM
pIC50: −log10 of the molar value.

Solved entries:
COc1ncc2nc(NC(=O)c3cnc(C)cc3-c3cc(Cl)ncc3OC)sc2n1 [Example 75] :: > 7.00
COc1cnc(Cl)cc1-c1cc(C)ncc1C(=O)Nc1nc2ccccc2s1 [Example 69] :: > 7.00

Let's switch to this molecule now.
Input: Please report the recorded pIC50 for COc1cnc(Cl)cc1-c1cc(C)ncc1C(=O)Nc1nc2ccc(N3CCCS3(=O)=O)cc2s1 [Example 84] .
Output: > 7.00
